READOUT NAME: melting point (°C)

C=CCc1cc2c(c(CC=C)c1O)CCC(=O)N2c1ccc(OC)cc1 = 154
N#CC(=Cc1ccc(O)c(O)c1)C(=O)NCCCNC(=O)C(C#N)=Cc1ccc(O)c(O)c1 = 274

a = O=C1c2cccc(NC(=S)Nc3cccc(Br)n3)c2C2CCCCN12 (stereo not given)
b = CNC(=O)C1CN(CCCC(c2ccc(F)cc2)c2ccc(F)cc2)CCN1CC(=O)Nc1c(C)cc(C)cc1C (stereo not given)
Task for the reader: decide whether a or b has the larger melting point. To answer, give the label that identifies your chosen option. a
(a: 195 °C, b: 90.2 °C)

---

READOUT NAME: melting point

Cc1ccc(-c2ccc3cc(C(=O)Nc4ccc(CN(C)C5CCOCC5)cc4)[nH]c3c2)cc1 = 246 to 250 °C

Look up melting point: CC(=O)C1CCC2C3CCC4CC(O)C(N5CC(C)OC(C)C5)CC4(C)C3C(=O)CC12C (stereo not given) 172 to 174 °C

Which melting point value is on record for `CCOC(=O)Cn1c(=O)oc2c(O)cccc21` ? 150 to 152 °C

Which melting point is reported for this compound? CC(C)(NC(=O)C(CS)Cc1ccccc1)C(=O)O (stereo not given) 175 to 176 °C

---

READOUT NAME: melting point (°C)

Clc1ccc2[nH]cc(C3=CCNCC3)c2c1 = 177
O=S1(=O)c2cccc3cccc(c23)N1CCN1CCC(CN2CCc3[nH]c4ccc(F)cc4c3C2)CC1 = 228

A = CCOC(=O)c1c(Cc2cc3c(cc2Cl)OCO3)c(-c2ccccc2)nn1CC1CCCCC1
B = N#Cc1ccc(F)c(C2=Nc3ccc(-c4ccccc4F)cc3NC(=O)C2)c1
For the pair A and B , which entry has the numerically smaller recorded melting point? Choose, then provide that item's label. A

---

READOUT NAME: melting point

Below are worked cases with known answers.
Cc1cc2c(S(C)(=O)=O)nc(OCC(F)(F)F)nc2s1 = 138 to 140 °C
Cc1cc2c(-c3ccccc3)nc(N3CCN(CC(O)c4ccc(F)cc4)CC3)nc2s1 (stereo not given) = 180 to 182 °C
COc1ccc(C(=O)c2cccnc2N2CCCC2=O)cc1 = 76 to 77 °C
[N-]=[N+]=N[C@H]1C[C@H](C(=O)O)C1 = 39 to 41 °C
CCCCCCC#CCC#CCC#CCCCCCCC(=O)O = 57 to 58 °C

So what does the record say about melting point for `Nc1c(-c2ccc(C(F)(F)F)cc2)nc2ccc(F)cc2c1C(=O)O` ? 260 to 262 °C

Field request: melting point | item: CN1C(=O)C(NC(=O)Nc2ccccc2[N+](=O)[O-])N=C(c2ccccc2)c2ccccc21 (stereo not given) 260 to 261 °C

Which melting point value is on record for `O=C1c2ccccc2C(=O)N1CCCCCCCCOc1cccc2ccccc12` ? 63 to 64 °C

// returns reported melting point for input `COc1cc2cc(CC(C)C)sc2c(Cl)c1Cl` 40 to 41 °C

Entry under review: `O=C(Nc1ccnnc1)Oc1ccccc1` . Reported melting point? 184 to 185 °C

What melting point value was documented for this compound, `CS(=O)(=O)c1ccc(-c2cnn(CC(F)(F)F)c(=O)c2NCCC#N)cc1` ? 172 to 174 °C

// melting point lookup, key: `CCOCCOc1ccc(COc2ccc3c(c2)C=C(C(=O)O)CCS3(=O)=O)cc1` 256 to 258 °C

---

READOUT NAME: melting point

// known answers, use as guide
O=C(NCC12CCCN(CCC1)C2)c1c[nH]c2ccccc12 = 139 to 142 °C
O=C1CCCc2nc(N3CCN(Cc4ccccc4)CC3)ncc2N1 = 211 °C
Cn1ncc(/C=C/C(=O)Nc2ccc(CC(C)(C)O)cc2)c1-c1ccc(F)cc1 = 188 to 189 °C
CC(=O)Nc1cccc(C(=O)Nc2cc(NC(=O)c3cccc(N(C)C)c3)ccc2C)c1 = 178 to 179 °C
C(=Cc1ccc2c(c1)Sc1ccccc1N2c1ccccc1)c1ccc(-c2ccc(C=Cc3ccc4c(c3)Sc3ccccc3N4c3ccccc3)cc2)cc1 = 278 to 290 °C

Item CCCCc1ncc(CC(=O)NC(CCc2ccccc2)C(=O)O)n1Cc1ccccc1Cl (racemic) has what recorded melting point? 119 to 120 °C

Which melting point reading was recorded for the compound `CNC(=O)N(O)Cc1ccc(OCCc2nc(-c3ccccc3)oc2C)cc1` ? 139 to 144 °C

Consider the compound `CC(=O)c1cccc(NC(=O)C2CCC2)c1` and give its measured melting point. 155 to 157 °C

Look up melting point: `CCCCCCCCCCCCNC1=NS(=O)(=O)N=C1NCCSCc1ccc(CN(C)C)o1` 136 to 139 °C

Give its melting point value. Item: `Cc1c(C)c2c(c(C)c1O)CC[C@@](C)(CO)O2` 124 to 128 °C

Entry under review: `CC(=O)CCc1nsc2ccc(-n3c(=O)cc(C(F)(F)F)n(C)c3=O)cc12` . Reported melting point? 198 to 199 °C

Which melting point value belongs to `COc1cc(Nc2nccc(Nc3ccc(OCC(=O)O)cc3)n2)cc(OC)c1OC` ? 159 °C

Quick one: melting point for `CC(=O)N1CCC(O)(c2ccccc2C)CC1` ? 145 to 146 °C

What melting point value was documented for this compound, O=C1OC(c2ccc(Cl)cc2)C(Cn2cncn2)(c2ccc(Cl)cc2Cl)O1 (stereo unspecified) ? 178 to 179 °C

Recorded melting point of COC(=O)C1CC(Oc2ccc([N+](=O)[O-])cc2)CN1C(=O)C1(C)CCc2c(C)c(O)c(C)c(C)c2O1 (stereo unspecified) , please. 103 to 105 °C

Value lookup for melting point; key = `O=C(O)c1cc(-n2c(-c3ccc(Br)cc3)cc3c2CCCC3)ccc1O` 231 to 232 °C

---

READOUT NAME: melting point

Cc1cc2c(cc1C)SC(CCCBr)C(=O)N2 (configuration not stated) = 151 to 153 °C
CC12CCC3c4ccc(OC(=O)c5cccnc5)cc4CCC3C1CCC2OC(=O)c1cccnc1 (configuration not stated) = 148 to 150 °C
Cc1cc(-c2nnc3c4ccccc4c(OCc4ccccn4)nn23)no1 = 234 to 236 °C
CC(C)CCNc1c([N+](=O)[O-])cnc2ccccc12 = 99 to 100 °C
CCCc1c(OCC(O)CSc2ccc(CC(=O)O)c(Cl)c2Cl)ccc(C(C)=O)c1O (configuration not stated) = 151 to 153 °C

Requested field: melting point. Item: Cc1ccc(C(=O)NC(NC(=NC#N)Nc2ccc(Cl)nc2)C(C)(Cl)Cl)cc1 (configuration not stated) 198 to 200 °C

What does the record list as melting point for `CCCCS(=O)(=O)Nc1cccc(COc2cccc3cccnc23)c1` ? 136 to 137 °C

Would you mind telling me what melting point value was observed for O=C1CCC([N+](=O)[O-])C(c2cccc(Cl)c2)N1 (configuration not stated) ? 131 to 133 °C

For the molecule CC(O)C1CCC2C3CCC4=CC(O)CCC4(C)C3CCC12C (configuration not stated) , what melting point is on record? 169 to 170 °C

Reported melting point, molecule `NC(=O)c1coc(-c2ccc(Oc3ccc(F)cc3)cc2)n1` : ____ 164 °C

Bench note: what melting point did `CCCCc1cc(C(=O)Nc2nnn[nH]2)nc(-c2ccc(N)cc2)c1` show? > 300 °C

---

READOUT NAME: melting point

Solved entries:
Nc1ccc(C23CC(C2)C(=O)N(Cc2ccccc2)C3=O)cc1 = 164 to 166 °C
CCOC(=O)CNC(=O)c1nc2ccc(Cl)nn2c1C = 192 to 195 °C
O=C(Nc1cccc2cc(CBr)cnc12)c1c(Cl)cccc1Cl = 223 to 224 °C
COc1ccnc2c1C(=O)CC(c1ccccc1)C2 (stereo not given) = 130 to 131 °C
O=C(O)c1ccc(S(F)(F)(F)(F)F)cc1 = 188 to 190 °C

What does the record list as melting point for OC1CSC(Oc2cccc(-c3cccnc3F)c2)C(O)C1O (stereo not given) ? 160 °C

Dear colleague, I am looking for the recorded melting point of the following compound: `O=C(O)COc1cc(Cl)ccc1C(=O)NCCN1CCN(Cc2ccc(Cl)c(Cl)c2)CC1` 118 to 120 °C

Quick check: melting point of `CCCCc1nc(-c2ccc(C(=O)NCCC(C)(C)C)cc2)no1` ? 78 to 80 °C

Given the compound `C=C1c2ccccc2C=Cn2c(OC)nnc21` , what is its reported melting point? 160 to 161 °C

Given `O=C(NCc1ccc(Cl)cc1)c1cnc2cc(C(F)(F)F)c(SCc3ccccc3)cc2c1O` , state its recorded melting point. 185 to 188 °C

---

READOUT NAME: melting point

See these solved cases before continuing.
O=C(O)CCCCc1c[nH]c2ccccc12 = 80 to 83 °C
C#Cc1c(-c2ccc(OC(F)F)c(OC3CC3)c2)[nH]c2cn[nH]c(=O)c12 = > 300 °C
Nc1cc(C(F)(F)F)cc2c(Cl)ccnc12 = 57 to 58 °C
NC(=O)c1c(F)ccc(OCc2nc(-c3ccc(O)cc3)no2)c1F = 209 to 210 °C

With those in mind, consider the next molecule.
Entry under review: `Cc1oc(-c2ccco2)nc1COc1ccc(Cn2cc(CCC(=O)O)c(-c3ccccc3)n2)cc1` . Reported melting point? 152 to 153 °C
